The origin of these recorded values is ChEMBL document CHEMBL1152210.

system: Artemia salina; assay: Toxicity in Artemia salina after 24 hrs by serial dilution method; type: organism-based; conditions: in vivo
Below, each entry is listed with its recorded LC50.
Numeric only. Scale: ppm

Consider the following illustrative entries.
| structure-notation | LC50 (ppm) |
| --- | --- |
| CCCCCCCCCCCc1cccc(O)c1 | 1 |
| C/C1=C\C[C@@H]2C[C@@H](C[C@]3(CC[C@H](C)[C@@H](C)O3)O2)OC(=O)[C@@H]2CC[C@@H](O)[C@H]3OC/C(=C\C=C\[C@H](C)C1)[C@]32O | 0.1 |

// next entry
State, in one line, measured LC50 of "COc1cccc2oc(=O)ccc12"
30

---

test system: Oryzias latipes; assay: Toxicity in Oryzias latipes after 24 hrs by serial dilution method; format: organism-based; settings: in vivo
LC100 by entry:
Unit ppm implied. Number only.

Consider the worked cases shown below.
| structure-notation | obs-value |
| --- | --- |
| COc1cc(=O)oc2ccccc12 | 100 |
| CCCCCCCCCc1cccc(O)c1 | 10 |

Here is the next item to consider.
Return the recorded LC100 value; entry: "CCCCCCCCCCCc1cccc(O)c1"
5
